# assay_protocol: Pharmacokinetics and metabolism in rat plasma after a single intravenous or oral dose (HPLC)
# Format: in vivo
# condition_context: female, Wistar, in vivo, iv, 10 mg/kg
reported_property: Vd (L)

1) COc1cc2c(cc1OS(N)(=O)=O)CCC1C2CC[C@]2(C)C(OS(N)(=O)=O)CCC12 (stereo partly shown) [2-MeOE2bisMATE, 2-methoxyoestradiol-bis-sulphamate] | 0.28

---

# assay_protocol: Pharmacokinetics and metabolism in rat plasma after a single intravenous or oral dose (HPLC)
# Type: in vivo
# condition_context: female, Wistar, in vivo, po, 10 mg/kg, t1/2β (terminal plasma half-life)
reported_property: half-life (h)

1) COc1cc2c(cc1OS(N)(=O)=O)CCC1C2CC[C@]2(C)C(OS(N)(=O)=O)CCC12 (stereo partly shown) [2-MeOE2bisMATE, 2-methoxyoestradiol-bis-sulphamate] | 6.51
